molecular target: human GAL2 receptor (Homo sapiens, UniProt O43603); construct: expressed in transfected cells; assay: Radioligand binding at cloned human GAL2 receptor; conditions: read-out: Ki GalR2, pyrimidines
Sequence (O43603 whole entry): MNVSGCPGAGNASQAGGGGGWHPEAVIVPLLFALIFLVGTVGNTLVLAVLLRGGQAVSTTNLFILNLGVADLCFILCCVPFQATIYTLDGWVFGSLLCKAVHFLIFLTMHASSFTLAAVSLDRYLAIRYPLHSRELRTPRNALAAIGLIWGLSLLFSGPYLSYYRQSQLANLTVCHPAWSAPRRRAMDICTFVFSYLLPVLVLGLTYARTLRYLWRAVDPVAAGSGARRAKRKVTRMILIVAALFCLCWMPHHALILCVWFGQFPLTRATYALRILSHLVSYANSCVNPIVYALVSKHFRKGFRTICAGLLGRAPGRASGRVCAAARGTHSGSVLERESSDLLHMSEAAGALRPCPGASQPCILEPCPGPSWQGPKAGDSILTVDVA
Quantity Kind: pKi
Entry type: numeric. Quantity: pKi, the -log10 of concentration in molar units.

Give the value of pKi reported for the following: COC[C@@H]1[C@@H](c2ccccc2)OCCN1c1nc(Nc2ccc(C)cc2)cc(N2CCCCC2)n1 [Example 49]
5.49

---

Please go through the items and note down their Ki.
biological target: dopamine D5 receptor (Homo sapiens); construct: expressed in transfected cells; assay: Radioligand binding, dopamine D5 receptor; conditions: Table 9; read-out: hD5 Ki
Sequence (P21918 whole entry): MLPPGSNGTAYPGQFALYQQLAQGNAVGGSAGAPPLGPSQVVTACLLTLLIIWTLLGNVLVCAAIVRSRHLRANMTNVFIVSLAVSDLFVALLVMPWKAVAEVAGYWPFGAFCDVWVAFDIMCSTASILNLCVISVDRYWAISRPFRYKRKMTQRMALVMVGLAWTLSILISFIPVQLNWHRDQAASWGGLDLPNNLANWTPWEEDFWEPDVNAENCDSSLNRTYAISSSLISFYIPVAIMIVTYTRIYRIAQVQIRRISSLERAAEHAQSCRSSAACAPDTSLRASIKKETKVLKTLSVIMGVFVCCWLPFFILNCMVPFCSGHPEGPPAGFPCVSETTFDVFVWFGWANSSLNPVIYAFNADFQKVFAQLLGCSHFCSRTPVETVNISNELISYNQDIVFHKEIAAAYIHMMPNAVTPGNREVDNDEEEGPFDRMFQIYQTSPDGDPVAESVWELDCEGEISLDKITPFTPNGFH
Only the number, expressed in nM, is required.

GET Ki | system: dopamine D5 receptor (Homo sapiens) | item: Cc1ccc(Nc2cc(N3CCCCC3)nc(N(C)CCc3c[nH]c4ccccc34)n2)cc1
64

GET Ki | system: dopamine D5 receptor (Homo sapiens) | item: COc1cccc(Nc2cc(N3CCCCC3)nc(N(C)CCc3c[nH]c4ccccc34)n2)c1
89

GET Ki | system: dopamine D5 receptor (Homo sapiens) | item: CN(CCc1c[nH]c2ccccc12)c1nc(Nc2ccc(F)c(F)c2)cc(N2CCCCC2)n1
78

GET Ki | system: dopamine D5 receptor (Homo sapiens) | item: CN(C)c1cc(Nc2ccc(Cl)c(Cl)c2)nc(Nc2ccccc2)n1
538

GET Ki | system: dopamine D5 receptor (Homo sapiens) | item: O=C1C(=Nc2cccc(Cl)c2)c2ccccc2N1c1ccccc1
727

GET Ki | system: dopamine D5 receptor (Homo sapiens) | item: Cc1ccc(Nc2cc(N3CCCCC3)nc(N(C)CCc3ccccc3)n2)cc1
63

GET Ki | system: dopamine D5 receptor (Homo sapiens) | item: O=C1C(=Nc2ccc(C(F)(F)F)cc2)c2ccccc2N1c1ccccc1
2590

GET Ki | system: dopamine D5 receptor (Homo sapiens) | item: Cc1ccc(Nc2cc(N(C)C)nc(N(C)CCc3c[nH]c4ccccc34)n2)cc1
122

GET Ki | system: dopamine D5 receptor (Homo sapiens) | item: Cc1ccc(Nc2cc(N3CCCCC3)nc(N3CCN(c4ncccc4C(F)(F)F)CC3)n2)cc1
111

GET Ki | system: dopamine D5 receptor (Homo sapiens) | item: O=C1C(=Nc2ccc(Cl)cc2)c2ccccc2N1c1ccccc1
10100

GET Ki | system: dopamine D5 receptor (Homo sapiens) | item: O=C1C(=Nc2ccc(Br)cc2)c2ccccc2N1c1ccccc1
1200

---

biological target: human 5HT4 receptor (Homo sapiens); construct: expressed in transfected cells; assay: Radioligand binding, 5-HT4 receptor; settings: Table 8; Ki h5HT4 divided by Ki hGAL3
Please go through the items and note down their selectivity ratio h5HT4.
Give a plain numeric answer without units written out.

Give the value of selectivity ratio h5HT4 reported for the following: Cc1ccc(Nc2cc(N3CCCCC3)nc(N(C)CCc3c[nH]c4ccccc34)n2)cc1
14

Give the value of selectivity ratio h5HT4 reported for the following: Cc1ccc(Nc2cc(N(C)C)nc(N(C)CCc3c[nH]c4ccccc34)n2)cc1
17

Give the value of selectivity ratio h5HT4 reported for the following: O=C1C(=Nc2cccc(C(F)(F)F)c2)c2ccccc2N1c1ccccc1
2

Give the value of selectivity ratio h5HT4 reported for the following: COc1cccc(Nc2cc(N3CCCCC3)nc(N(C)CCc3c[nH]c4ccccc34)n2)c1
30

---

biological target: human 5HT1F (Homo sapiens); construct: expressed in transfected cells; test: Radioligand binding, 5HT1F receptor ([3H]-serotonin); conditions: Table 7; read-out: h5HT1F Ki
Sequence (P30939 whole entry): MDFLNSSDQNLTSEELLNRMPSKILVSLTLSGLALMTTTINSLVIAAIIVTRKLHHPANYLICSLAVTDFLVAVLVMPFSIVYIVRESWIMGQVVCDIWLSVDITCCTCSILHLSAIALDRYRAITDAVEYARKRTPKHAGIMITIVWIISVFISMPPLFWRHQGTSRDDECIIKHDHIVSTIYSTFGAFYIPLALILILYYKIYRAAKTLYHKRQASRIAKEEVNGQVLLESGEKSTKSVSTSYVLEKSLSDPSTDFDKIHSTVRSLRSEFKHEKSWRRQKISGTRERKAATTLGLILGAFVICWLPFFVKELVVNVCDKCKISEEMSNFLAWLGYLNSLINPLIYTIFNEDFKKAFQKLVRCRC
Quantity Kind: Ki (µM)
Only the number, expressed in µM, is required.

Give the value of Ki reported for the following: CN(CCc1c[nH]c2ccccc12)c1nc(Nc2ccc(F)c(F)c2)cc(N2CCCCC2)n1
4.19

Give the value of Ki reported for the following: O=C1C(=Nc2cccc(Cl)c2)c2ccccc2N1c1ccccc1
5.68

Give the value of Ki reported for the following: CN(C)c1cc(Nc2ccc(Cl)c(Cl)c2)nc(Nc2ccccc2)n1
2.12

Give the value of Ki reported for the following: Cc1ccc(Nc2cc(N3CCCCC3)nc(N(C)CCc3ccccc3)n2)cc1
5.77

Give the value of Ki reported for the following: O=C1C(=Nc2ccc(C(F)(F)F)cc2)c2ccccc2N1c1ccccc1
4.45

Give the value of Ki reported for the following: Cc1ccc(Nc2cc(N3CCCCC3)nc(N3CCN(c4ncccc4C(F)(F)F)CC3)n2)cc1
4.8

Give the value of Ki reported for the following: O=C1C(=Nc2ccc(Br)cc2)c2ccccc2N1c1ccccc1
3.36

Give the value of Ki reported for the following: COc1cccc(Nc2cc(N3CCCCC3)nc(N(C)CCc3c[nH]c4ccccc34)n2)c1
10.3

Give the value of Ki reported for the following: O=C1C(=Nc2ccc(Cl)cc2)c2ccccc2N1c1ccccc1
4.16

Give the value of Ki reported for the following: Cc1ccc(Nc2cc(N3CCCCC3)nc(N(C)CCc3c[nH]c4ccccc34)n2)cc1
1.78

Give the value of Ki reported for the following: Cc1ccc(Nc2cc(N(C)C)nc(N(C)CCc3c[nH]c4ccccc34)n2)cc1
3.24

---

molecular target: human 5HT1F (Homo sapiens); construct: expressed in transfected cells; experiment: Radioligand binding, 5HT1F receptor ([3H]-serotonin); settings: Table 8; Ki h5HT1F divided by Ki hGAL3
Quantity Kind: selectivity ratio h5HT1F

Give the value of selectivity ratio h5HT1F reported for the following: Cc1ccc(Nc2cc(N3CCCCC3)nc(N(C)CCc3c[nH]c4ccccc34)n2)cc1
20

Give the value of selectivity ratio h5HT1F reported for the following: Cc1ccc(Nc2cc(N(C)C)nc(N(C)CCc3c[nH]c4ccccc34)n2)cc1
>30

Give the value of selectivity ratio h5HT1F reported for the following: O=C1C(=Nc2ccc(C(F)(F)F)cc2)c2ccccc2N1c1ccccc1
>100

Give the value of selectivity ratio h5HT1F reported for the following: COC[C@@H]1[C@@H](c2ccccc2)OCCN1c1nc(Nc2ccc(C)cc2)cc(N2CCCCC2)n1
>30

Give the value of selectivity ratio h5HT1F reported for the following: O=C1C(=Nc2ccc(Cl)cc2)c2ccccc2N1c1ccccc1
>30

Give the value of selectivity ratio h5HT1F reported for the following: Cc1ccc(Nc2cc(N3CCCCC3)nc(N(C)CCc3ccccc3)n2)cc1
>100

Give the value of selectivity ratio h5HT1F reported for the following: O=C1C(=Nc2ccc(Br)cc2)c2ccccc2N1c1ccccc1
>30

Give the value of selectivity ratio h5HT1F reported for the following: CN(C)c1cc(Nc2ccc(Cl)c(Cl)c2)nc(Nc2ccccc2)n1
25

Give the value of selectivity ratio h5HT1F reported for the following: CN(CCc1c[nH]c2ccccc12)c1nc(Nc2ccc(F)c(F)c2)cc(N2CCCCC2)n1
>30

---

Please go through the items and note down their selectivity ratio hα2C.
target: human α2C adrenoceptor (Homo sapiens, UniProt P18825); construct: expressed in transfected cells; assay: Radioligand binding, α2C adrenergic receptor; details: Table 10; Ki hα2C divided by Ki hGAL3
Sequence (P18825 whole entry): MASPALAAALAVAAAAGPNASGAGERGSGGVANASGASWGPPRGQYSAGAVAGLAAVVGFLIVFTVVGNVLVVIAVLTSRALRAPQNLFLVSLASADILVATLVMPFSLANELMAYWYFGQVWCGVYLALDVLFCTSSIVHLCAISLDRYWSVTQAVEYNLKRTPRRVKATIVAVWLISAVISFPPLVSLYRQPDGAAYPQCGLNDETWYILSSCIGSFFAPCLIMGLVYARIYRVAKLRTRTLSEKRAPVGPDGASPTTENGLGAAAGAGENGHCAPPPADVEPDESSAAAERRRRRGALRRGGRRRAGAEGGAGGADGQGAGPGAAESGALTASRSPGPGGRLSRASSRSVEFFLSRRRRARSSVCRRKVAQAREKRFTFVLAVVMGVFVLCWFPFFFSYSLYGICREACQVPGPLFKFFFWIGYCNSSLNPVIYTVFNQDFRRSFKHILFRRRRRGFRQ

Give the value of selectivity ratio hα2C reported for the following: O=C1C(=Nc2cccc(C(F)(F)F)c2)c2ccccc2N1c1ccccc1
>100

Give the value of selectivity ratio hα2C reported for the following: O=C1C(=Nc2ccc(C(F)(F)F)cc2)c2ccccc2N1c1ccccc1
>100

Give the value of selectivity ratio hα2C reported for the following: COc1cccc(Nc2cc(N3CCCCC3)nc(N(C)CCc3c[nH]c4ccccc34)n2)c1
>100

Give the value of selectivity ratio hα2C reported for the following: COC[C@@H]1[C@@H](c2ccccc2)OCCN1c1nc(Nc2ccc(C)cc2)cc(N2CCCCC2)n1
>30

---

biological target: human 5HT4 receptor (Homo sapiens, UniProt Q13639); construct: expressed in transfected cells; assay: Radioligand binding, 5-HT4 receptor; details: read-out: h5HT4 Ki; Table 7
Sequence (Q13639 whole entry): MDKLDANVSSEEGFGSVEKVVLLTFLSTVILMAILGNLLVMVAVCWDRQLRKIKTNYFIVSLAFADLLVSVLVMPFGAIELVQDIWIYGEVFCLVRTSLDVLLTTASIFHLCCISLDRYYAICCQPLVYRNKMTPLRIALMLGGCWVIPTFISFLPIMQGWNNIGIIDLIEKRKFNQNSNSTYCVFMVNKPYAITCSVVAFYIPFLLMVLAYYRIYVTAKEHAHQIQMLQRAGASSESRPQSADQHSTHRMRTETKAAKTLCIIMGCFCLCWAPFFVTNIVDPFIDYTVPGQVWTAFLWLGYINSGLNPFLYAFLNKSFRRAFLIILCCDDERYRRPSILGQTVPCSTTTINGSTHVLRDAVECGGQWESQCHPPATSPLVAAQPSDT
Quantity Kind: Ki (µM)
Only the number, expressed in µM, is required.

Give the value of Ki reported for the following: COC[C@@H]1[C@@H](c2ccccc2)OCCN1c1nc(Nc2ccc(C)cc2)cc(N2CCCCC2)n1
13.2

---

molecular target: human dopamine D2 (Homo sapiens, UniProt P14416); construct: purchased BioSignal, Inc. (Montreal, Canada); assay: Radioligand binding, dopamine D2 receptor; details: Table 10; Ki hD2 divided by Ki hGAL3
Sequence (P14416 whole entry): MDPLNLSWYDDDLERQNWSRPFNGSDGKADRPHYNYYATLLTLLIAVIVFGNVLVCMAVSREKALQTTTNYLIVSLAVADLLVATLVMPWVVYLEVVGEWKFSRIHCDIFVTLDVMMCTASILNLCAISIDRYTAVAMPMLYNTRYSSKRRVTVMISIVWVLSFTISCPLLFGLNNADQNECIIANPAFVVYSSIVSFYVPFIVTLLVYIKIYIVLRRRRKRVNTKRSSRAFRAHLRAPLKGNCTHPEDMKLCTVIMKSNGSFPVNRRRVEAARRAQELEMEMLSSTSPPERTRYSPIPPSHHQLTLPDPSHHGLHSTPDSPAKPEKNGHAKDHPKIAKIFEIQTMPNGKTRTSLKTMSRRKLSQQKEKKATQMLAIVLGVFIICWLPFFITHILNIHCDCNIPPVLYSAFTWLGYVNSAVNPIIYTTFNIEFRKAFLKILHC
Quantity Kind: selectivity ratio hD2
Give a plain numeric answer without units written out.

Give the value of selectivity ratio hD2 reported for the following: COC[C@@H]1[C@@H](c2ccccc2)OCCN1c1nc(Nc2ccc(C)cc2)cc(N2CCCCC2)n1
28

Give the value of selectivity ratio hD2 reported for the following: Cc1ccc(Nc2cc(N(C)C)nc(N(C)CCc3c[nH]c4ccccc34)n2)cc1
11

---

Biological target: human 5HT1B (Homo sapiens, UniProt P28222)
Construct: expressed in transfected cells
Sequence (P28222 whole entry): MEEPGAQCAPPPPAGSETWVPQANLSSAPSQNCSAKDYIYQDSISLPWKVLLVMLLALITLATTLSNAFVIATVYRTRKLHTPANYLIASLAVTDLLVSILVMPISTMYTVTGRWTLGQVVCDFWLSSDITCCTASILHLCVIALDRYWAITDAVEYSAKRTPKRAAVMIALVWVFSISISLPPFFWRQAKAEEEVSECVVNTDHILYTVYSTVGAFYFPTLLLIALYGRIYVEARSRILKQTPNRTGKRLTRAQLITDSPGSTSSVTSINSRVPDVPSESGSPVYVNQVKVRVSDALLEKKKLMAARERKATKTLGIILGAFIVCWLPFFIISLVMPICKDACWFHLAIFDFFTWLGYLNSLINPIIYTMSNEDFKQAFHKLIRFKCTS
Assay: Radioligand binding, 5HT1B receptor ([3H]-serotonin)
Conditions: Table 8; Ki h5HT1B divided by Ki hGAL3
Description: Human 5HT1B, 5HT1D, 5HT1E, 5HT1F, and 5HT7 Receptors: The cell lysates of LM(tk-) clonal cell line stably transfected with the genes encoding each of these 5HT receptor-subtypes were prepared as described above. […] Nonspecific binding was determined in the presence of 10 µM serotonin. […] Binding data were analyzed using nonlinear regression and statistical techniques available in the GraphPAD Prism package (San Diego, CA). […]
Please go through the items and note down their selectivity ratio h5HT1B.

GET selectivity ratio h5HT1B | system: human 5HT1B (Homo sapiens, UniProt P28222) | item: O=C1C(=Nc2cccc(C(F)(F)F)c2)c2ccccc2N1c1ccccc1
>100

GET selectivity ratio h5HT1B | system: human 5HT1B (Homo sapiens, UniProt P28222) | item: CN(C)c1cc(Nc2ccc(Cl)c(Cl)c2)nc(Nc2ccccc2)n1
>30

GET selectivity ratio h5HT1B | system: human 5HT1B (Homo sapiens, UniProt P28222) | item: CN(CCc1c[nH]c2ccccc12)c1nc(Nc2ccc(F)c(F)c2)cc(N2CCCCC2)n1
7

GET selectivity ratio h5HT1B | system: human 5HT1B (Homo sapiens, UniProt P28222) | item: O=C1C(=Nc2cccc(Cl)c2)c2ccccc2N1c1ccccc1
>30

GET selectivity ratio h5HT1B | system: human 5HT1B (Homo sapiens, UniProt P28222) | item: Cc1ccc(Nc2cc(N3CCCCC3)nc(N(C)CCc3ccccc3)n2)cc1
>30
